So I've got MIC readings for Kl. pneumoniae PCI 602, take a look.

>  <Molecule>
CO[C@@]1(NC(=O)C(C(=O)O)c2ccsc2)C(=O)N2C(C(=O)O)=C(CSc3nnnn3C)[C@H](C)O[C@@H]21 (stereo partly drawn)

>  <MIC [µg/mL]>
0.05

$$$$
>  <Molecule>
CO[C@@]1(NC(=O)C(C(=O)O)c2cccs2)C(=O)N2C(C(=O)O)=C(CSc3nnnn3C)[C@H](C)O[C@@H]21 (stereo partly drawn)

>  <MIC [µg/mL]>
1.56

$$$$
>  <Molecule>
C[C@H]1O[C@@H]2[C@H](NC(=O)Cc3cccs3)C(=O)N2C(C(=O)O)=C1CSc1nnnn1C

>  <MIC [µg/mL]>
0.1

$$$$

* * *

# Tested on: Staph. aureus 209P JC-1
# Procedure summary: MIC against Staph. aureus 209P JC-1
# Format: cell-based
# Experimental parameters: Staphylococcus aureus
Response field label: string, one of class 1 (MIC strictly below 0.2 mg/L) or class 0.

>  <Compound>
CO[C@@]1(NC(=O)Cc2cccs2)C(=O)N2C(C(=O)O)=C(CSc3nnnn3C)[C@@H](C)O[C@@H]21

>  <Classification>
class 0

$$$$
>  <Compound>
CO[C@@]1(NC(=O)C(C(=O)O)c2cccs2)C(=O)N2C(C(=O)O)=C(CSc3nnnn3C)[C@H](C)O[C@@H]21 (stereo partly shown)

>  <Classification>
class 0

$$$$
>  <Compound>
C[C@@H]1O[C@@H]2[C@H](NC(=O)Cc3cccs3)C(=O)N2C(C(=O)O)=C1CSc1nnnn1C

>  <Classification>
class 1

$$$$
>  <Compound>
CO[C@@]1(NC(=O)C(C(=O)O)c2ccsc2)C(=O)N2C(C(=O)O)=C(CSc3nnnn3C)[C@H](C)O[C@@H]21 (stereo partly shown)

>  <Classification>
class 0

$$$$
>  <Compound>
CO[C@@]1(NC(=O)C(C(=O)O)c2cccs2)C(=O)N2C(C(=O)O)=C(CSc3nnnn3C)[C@@H](C)O[C@@H]21 (stereo partly shown)

>  <Classification>
class 0

$$$$

* * *

So I've got MIC readings for Kl. pneumoniae PCI 602, take a look.

>  <Compound>
C[C@@H]1O[C@@H]2[C@H](NC(=O)Cc3cccs3)C(=O)N2C(C(=O)O)=C1CSc1nnnn1C

>  <Units>
mg/L

>  <MIC>
1.56

$$$$
>  <Compound>
CO[C@@]1(NC(=O)C(C(=O)O)c2cccs2)C(=O)N2C(C(=O)O)=C(CSc3nnnn3C)[C@@H](C)O[C@@H]21 (stereo partly shown)

>  <Units>
mg/L

>  <MIC>
1.56

$$$$
>  <Compound>
CO[C@@]1(NC(=O)Cc2cccs2)C(=O)N2C(C(=O)O)=C(CSc3nnnn3C)[C@@H](C)O[C@@H]21

>  <Units>
mg/L

>  <MIC>
25

$$$$
>  <Compound>
CO[C@@]1(NC(=O)Cc2cccs2)C(=O)N2C(C(=O)O)=C(CSc3nnnn3C)[C@H](C)O[C@@H]21

>  <Units>
mg/L

>  <MIC>
1.56

$$$$

* * *

MIC: recorded values
# Test system: Pr. vulgaris GN76
# Procedure summary: MIC against Pr. vulgaris GN76
# Type: cell-based
# Experimental parameters: Proteus vulgaris; Pr. vulgaris GN76; read-out: MIC

>  <Compound>
C[C@H]1O[C@@H]2[C@H](NC(=O)Cc3cccs3)C(=O)N2C(C(=O)O)=C1CSc1nnnn1C

>  <Tested system>
Pr. vulgaris GN76

>  <MIC>
0.1 µg/mL

$$$$
>  <Compound>
CO[C@@]1(NC(=O)Cc2cccs2)C(=O)N2C(C(=O)O)=C(CSc3nnnn3C)[C@H](C)O[C@@H]21

>  <Tested system>
Pr. vulgaris GN76

>  <MIC>
0.39 µg/mL

$$$$
>  <Compound>
CO[C@@]1(NC(=O)Cc2cccs2)C(=O)N2C(C(=O)O)=C(CSc3nnnn3C)[C@@H](C)O[C@@H]21

>  <Tested system>
Pr. vulgaris GN76

>  <MIC>
12.5 µg/mL

$$$$
>  <Compound>
CO[C@@]1(NC(=O)C(C(=O)O)c2cccs2)C(=O)N2C(C(=O)O)=C(CSc3nnnn3C)[C@@H](C)O[C@@H]21 (stereo partly drawn)

>  <Tested system>
Pr. vulgaris GN76

>  <MIC>
0.39 µg/mL

$$$$
>  <Compound>
CO[C@@]1(NC(=O)C(C(=O)O)c2cccs2)C(=O)N2C(C(=O)O)=C(CSc3nnnn3C)[C@H](C)O[C@@H]21 (stereo partly drawn)

>  <Tested system>
Pr. vulgaris GN76

>  <MIC>
0.1 µg/mL

$$$$
>  <Compound>
CO[C@@]1(NC(=O)C(C(=O)O)c2ccsc2)C(=O)N2C(C(=O)O)=C(CSc3nnnn3C)[C@H](C)O[C@@H]21 (stereo partly drawn)

>  <Tested system>
Pr. vulgaris GN76

>  <MIC>
0.1 µg/mL

$$$$

* * *

MIC: recorded values
# System: Ser. marcescens No. 2
# Procedure summary: MIC against Ser. marcescens No. 2
# Format: cell-based
# Experimental parameters: Serratia marcescens; Ser. marcescens No. 2; read-out: MIC

>  <Compound>
CO[C@@]1(NC(=O)C(C(=O)O)c2cccs2)C(=O)N2C(C(=O)O)=C(CSc3nnnn3C)[C@H](C)O[C@@H]21 (stereo partly drawn)

>  <MIC, µg/mL>
0.2

$$$$
>  <Compound>
CO[C@@]1(NC(=O)C(C(=O)O)c2cccs2)C(=O)N2C(C(=O)O)=C(CSc3nnnn3C)[C@@H](C)O[C@@H]21 (stereo partly drawn)

>  <MIC, µg/mL>
0.78

$$$$
>  <Compound>
CO[C@@]1(NC(=O)C(C(=O)O)c2ccsc2)C(=O)N2C(C(=O)O)=C(CSc3nnnn3C)[C@H](C)O[C@@H]21 (stereo partly drawn)

>  <MIC, µg/mL>
0.2

$$$$
>  <Compound>
CO[C@@]1(NC(=O)Cc2cccs2)C(=O)N2C(C(=O)O)=C(CSc3nnnn3C)[C@@H](C)O[C@@H]21

>  <MIC, µg/mL>
12.5

$$$$
>  <Compound>
C[C@H]1O[C@@H]2[C@H](NC(=O)Cc3cccs3)C(=O)N2C(C(=O)O)=C1CSc1nnnn1C

>  <MIC, µg/mL>
0.1

$$$$
>  <Compound>
C[C@@H]1O[C@@H]2[C@H](NC(=O)Cc3cccs3)C(=O)N2C(C(=O)O)=C1CSc1nnnn1C

>  <MIC, µg/mL>
6.25

$$$$

* * *

# System: Pr. rettgeri GN624
# Procedure summary: MIC against Pr. rettgeri GN624
# Format: cell-based
# Experimental parameters: Providencia rettgeri

>  <Compound>
C[C@H]1O[C@@H]2[C@H](NC(=O)Cc3cccs3)C(=O)N2C(C(=O)O)=C1CSc1nnnn1C [compound 1]

>  <Tested system>
Pr. rettgeri GN624

>  <MIC>
0.05 µg/mL

$$$$
>  <Compound>
C[C@@H]1O[C@@H]2[C@H](NC(=O)Cc3cccs3)C(=O)N2C(C(=O)O)=C1CSc1nnnn1C [compound 2]

>  <Tested system>
Pr. rettgeri GN624

>  <MIC>
12.5 µg/mL

$$$$
>  <Compound>
CO[C@@]1(NC(=O)Cc2cccs2)C(=O)N2C(C(=O)O)=C(CSc3nnnn3C)[C@@H](C)O[C@@H]21 [compound 3]

>  <Tested system>
Pr. rettgeri GN624

>  <MIC>
> 100 µg/mL

$$$$
>  <Compound>
CO[C@@]1(NC(=O)C(C(=O)O)c2cccs2)C(=O)N2C(C(=O)O)=C(CSc3nnnn3C)[C@@H](C)O[C@@H]21 (stereo partly shown) [compound 5]

>  <Tested system>
Pr. rettgeri GN624

>  <MIC>
3.13 µg/mL

$$$$
>  <Compound>
CO[C@@]1(NC(=O)Cc2cccs2)C(=O)N2C(C(=O)O)=C(CSc3nnnn3C)[C@H](C)O[C@@H]21 [compound 4]

>  <Tested system>
Pr. rettgeri GN624

>  <MIC>
25 µg/mL

$$$$
>  <Compound>
CO[C@@]1(NC(=O)C(C(=O)O)c2ccsc2)C(=O)N2C(C(=O)O)=C(CSc3nnnn3C)[C@H](C)O[C@@H]21 (stereo partly shown) [compound 7]

>  <Tested system>
Pr. rettgeri GN624

>  <MIC>
0.05 µg/mL

$$$$
>  <Compound>
CO[C@@]1(NC(=O)C(C(=O)O)c2cccs2)C(=O)N2C(C(=O)O)=C(CSc3nnnn3C)[C@H](C)O[C@@H]21 (stereo partly shown) [compound 6]

>  <Tested system>
Pr. rettgeri GN624

>  <MIC>
≤ 0.025 µg/mL

$$$$

* * *

# Test system: C. freundii CN346
# Procedure summary: MIC against C. freundii CN346
# Type: cell-based
# Experimental parameters: Citrobacter freundii; C. freundii CN346; read-out: MIC
MIC: recorded values
Assay readout: MIC

>  <Molecule>
CO[C@@]1(NC(=O)Cc2cccs2)C(=O)N2C(C(=O)O)=C(CSc3nnnn3C)[C@@H](C)O[C@@H]21

>  <Assay readout>
MIC

>  <Reported value>
> 100 µg/mL

$$$$
>  <Molecule>
CO[C@@]1(NC(=O)Cc2cccs2)C(=O)N2C(C(=O)O)=C(CSc3nnnn3C)[C@H](C)O[C@@H]21

>  <Assay readout>
MIC

>  <Reported value>
100 µg/mL

$$$$
>  <Molecule>
C[C@@H]1O[C@@H]2[C@H](NC(=O)Cc3cccs3)C(=O)N2C(C(=O)O)=C1CSc1nnnn1C

>  <Assay readout>
MIC

>  <Reported value>
100 µg/mL

$$$$
>  <Molecule>
CO[C@@]1(NC(=O)C(C(=O)O)c2ccsc2)C(=O)N2C(C(=O)O)=C(CSc3nnnn3C)[C@H](C)O[C@@H]21 (stereo partly drawn)

>  <Assay readout>
MIC

>  <Reported value>
1.56 µg/mL

$$$$
>  <Molecule>
CO[C@@]1(NC(=O)C(C(=O)O)c2cccs2)C(=O)N2C(C(=O)O)=C(CSc3nnnn3C)[C@@H](C)O[C@@H]21 (stereo partly drawn)

>  <Assay readout>
MIC

>  <Reported value>
25 µg/mL

$$$$
>  <Molecule>
C[C@H]1O[C@@H]2[C@H](NC(=O)Cc3cccs3)C(=O)N2C(C(=O)O)=C1CSc1nnnn1C

>  <Assay readout>
MIC

>  <Reported value>
3.13 µg/mL

$$$$
